# System: EKVX NSCLC
# experiment_notes: NCI tumour cell line growth inhibition, 48 h; in the data active = GI50 below about 0.43 µM; inactive = the rest
Respond using exactly one of the listed classes: true (1) (active), false (0) (inactive)

CN(C)c1cc[c]([Sn]([c]2ccc(N(C)C)cc2)([c]2ccc(N(C)C)cc2)[c]2ccc(N(C)C)cc2)cc1 : false (0)
Cc1ccc2[nH]c(O)c(N=Nc3ccc(S(N)(=O)=O)cc3)c2c1 : false (0)
COc1cccc(C#Cc2ccccc2C#CCCCCO)c1 : false (0)

Inquiry: Please let me know the test result on file for `CC/C=C\C[C@H]1C/C=C2/C(=O)C=C[C@@H]2C/C=C\CCCC(=O)O1` .
Reply text: false (0)

Inquiry: Please let me know the test result on file for `CC(C)(C[C@H]1CN(S(=O)(=O)c2cccc(C(F)(F)F)c2)c2cc(-c3cc(F)cc(OC(F)F)c3)ccc2O1)C(=O)O` .
Reply text: false (0)

* * *

# Test system: OVCAR-8 ovarian
# experiment_notes: NCI tumour cell line growth inhibition, 48 h
measured_parameter: TGI (µM)
# value in µM; strip the unit string

Answered examples (3):
CCN1CCC(O)(/C=C/c2ccc(C)cc2C)C(C(=O)/C=C/c2ccc(C)cc2C)C1 (centres undefined) : 5.08
COc1ccc(C2COc3cc(O)c(O)cc3C2)cc1 (centres undefined) : 63.3
COc1ccc(C(=O)COc2ccc(/C=C3\COc4ccc(OC)cc4C3=O)cc2)cc1 : 66.5

Proceed to the following item.
Inquiry: Param item = COC1C=COC2(C)Oc3c(C)c(O)c4c(O)c(c(C5SCCS5)c(O)c4c3C2=O)NC(=O)C(C)=C/C=C\C(C)C2OC(C)(C)OC(C2C)C(C)C(OC(C)=O)C1C (centres undefined) ; retrieve measured TGI.
Reply text: 28.5

* * *

# System: MOLT-4 leukemia
# experiment_notes: NCI tumour cell line growth inhibition, 48 h
measured_parameter: TGI (µM)
# value in µM; strip the unit string

CC1(C)[C@@H](OC(N)=O)[C@H]2O[C@H]2[C@]2(C=O)[C@H]3CC[C@]4(C)[C@@H](c5ccc(=O)oc5)[C@@H](Cl)C[C@]4(O)C3=CC[C@@H]12 : 0.0112
CC(C)(C)OC(=O)NCCCNC1(c2cc3ccccc3s2)CCCCC1 : 28.4
C=C1C(=O)C=C[C@]2(C)CC[C@H]3C(=C)C(=O)O[C@@H]3[C@@H]12 : 3.52

Proceed to the following item.
Inquiry: Param item = N#CC1=C(N)N(c2ccccc2)C(c2ccccc2)C1(C#N)C#N (centres undefined) ; retrieve measured TGI.
Reply text: 31.7

* * *

# Tested on: M14 melanoma
# experiment_notes: NCI tumour cell line growth inhibition, 48 h; in the data active = GI50 below about 0.43 µM; inactive = the rest
Respond using exactly one of the listed classes: TRUE = active, FALSE = inactive

Consider the worked cases shown below.
CC(C)C[C@H](NC(=O)/C=C/Cn1ccc2ccccc2c1=O)B(O)O : FALSE
CC(CO)(CO)NCCCCn1ccc2c1C(=O)c1c(c(O)c3ccccc3c1O)C2=O : FALSE
COc1ccc(CCN2COc3c([C@@H](C)CCC=C(C)C)ccc(C)c3C2)cc1OC : FALSE

Inquiry: Please let me know the test result on file for `CC(C)(C[C@H]1CN(S(=O)(=O)c2cccc(C(F)(F)F)c2)c2cc(-c3cc(F)cc(OC(F)F)c3)ccc2O1)C(=O)O` .
Reply text: FALSE

Inquiry: Please let me know the test result on file for `CCn1c(SCc2ccc(C)cc2)nnc1-c1nn(-c2ccc(Cl)cc2Cl)c(-c2ccc(Cl)cc2)c1C` .
Reply text: FALSE

Inquiry: Please let me know the test result on file for `Cc1ccc2[nH]c(O)c(N=Nc3ccc(S(N)(=O)=O)cc3)c2c1` .
Reply text: FALSE

Inquiry: Please let me know the test result on file for `C[C@H](O)C(=O)N1CCC(CCn2c(Sc3cc4c(cc3Br)OCO4)nc3c(N)ncnc32)CC1` .
Reply text: FALSE

Inquiry: Please let me know the test result on file for `Cn1c(=O)c(Cc2ccccc2F)cc2cnc(NC3CCOCC3)nc21` .
Reply text: FALSE

Inquiry: Please let me know the test result on file for `Cc1ncc(CCCN(C)C)cc1Nc1ncc2c(n1)-c1ccc(C(F)(F)F)cc1NC(=S)C2` .
Reply text: TRUE

This collection of values is drawn from PubChem BioAssay (NCI).
